# System: MS2 coat protein
# test-summary: apparent Kd, MS2 coat protein; higher = weaker binding; RNA-MaP array; theophylline 2 mM where present
# condition-context: designed as: OFF switch for theophylline; no ligand
endpoint-name: apparent Kd (nM)

1) UCACGUGGGAAUGAUACCAGCCACAUGAGGAUCACCCAUGUGCAUGGUGUGAGCUUCACGGGCCCUUGGCAGCAUUUCAAGUCGC
48
2) GUAUGGAAACAUACUAGGGUAUCAUGAGAUACCAGUACAGAAAUGUACCCUUGGCAGCUCAAGCAUACAUGAGGAUCACCCAUGU
16.4
3) UAUAUAUAUAGGGAUACCAGCAGAGAAAACGUUUAUCCUAACAUGAGGAUCACCCAUGUAUGCCCUUGGCAGCUUUAUAUAUAUA
22.9
4) AAAUAAAUAACUGAUACCAGUGUACUGACAUGAGGAUCACCCAUGUUGGGUUUUGUUGUACACCCUUGGCAGCAGAAAUAUAAAA
35.3
5) GAUGAACUAUUUGAUACCAGACCACAUGAGGAUCACCCAUGUGAGUUUCGUCCUUAGCCGGUCCCUUGGCAGCAAAUAGUUUAUC
16.9
6) GUACAUGAGGAUCACCCAUGUGGUAGGGAUACCAGCCAGAAGAAAGGCCCUUGGCAGCUUGUAUUUAGUGUGGGUUUGUUUGUUC
23.4
7) AGCGAGAUCCGUGAUACCAGCUACAUGAGGAUCACCCAUGUGAGCGCGAAAGUGCUGUGUAGCCCUUGGCAGCACAGUGGAUCUC
10

Reference source for all entries: the EternaBench riboswitch data
